# System: KM12 colon
# Assay info: NCI-60 one-dose screen, 48 h (100 = growth as untreated, 0 = no growth, -100 = all killed)
# Settings: 10 µM
This is part of a sample that, as a whole, favours compounds with a hit. Of some 83,000 tested, about 20% had one in any assay. Calls of active or inactive are those of the source. The calls were made as follows: active = growth percent below 10; inactive = the rest.
Reported metric: growth

Answered cases to consult:
| Smiles str | growth |
| --- | --- |
| N#Cc1ncc(-c2ccc(C(F)(F)F)cc2)c(NCc2cc(C(F)(F)F)cc(C(F)(F)F)c2)n1 | 10.2% (inactive) |
| CCOC(=O)c1ccc(NC(=O)Nc2ncc(Cl)cc2Cl)cc1 | 102% (inactive) |
| COc1ccc2c(c1)O/C(=C\c1ccc([N+](=O)[O-])o1)C2=O | -11.5% (active) |
| COc1ccc2c(c1)sc1nc(-c3ccccc3)c(-c3cccnc3)n12 | 106% (inactive) |

Let us move to another entry and its growth.
Entry "O=C(Nc1cccc(Br)c1)c1cc(=O)[nH]c2ccccc12" : reported growth = ?
101% (inactive)

* * *

# Tested on: NCI-H322M lung
# Assay info: NCI-60 one-dose screen, 48 h
# Settings: 10 µM
# Method: Growth inhibition of the NCI-H322M human Non-Small Cell Lung tumor cell line is measured as a screen for anti-cancer activity. Cells are grown in 96 well plates and exposed to the test compound for 48 hours. Compounds are tested at a single concentration, which is 10^-5 M for most compounds. The reported endpoint is percent growth (GI% or GIPRCNT), where numbers from 0 - 100% represent growth inhibition, and numbers from -100% - 0 represent cell death. […]
Compounds without any hit were thinned out: in the full panel of roughly 83,000, 20% have a hit. The source made the active and inactive calls. How the source made its calls: active means growth percent below 10; inactive means the rest.
Just give me one of these, please: 1 (active), -1 (inactive)

Below are worked cases with known answers.
| Compound | Experimental target | Label |
| --- | --- | --- |
| N#Cc1cc(-c2cc3ccccc3o2)oc1N | NCI-H322M lung | 1 |
| C#Cc1ccc(-n2c(/C=C/c3ccc4ccccc4n3)nc3ncccc3c2=O)cc1 | NCI-H322M lung | 1 |
| COc1ccc2c(c1)N(CCO)C1=C(C(=O)OC1)C2c1cc(OC)c(OC)c(OC)c1 (stereo unspecified) | NCI-H322M lung | -1 |
| COc1ccc([N+](=O)[O-])c(C(=O)O)c1 | NCI-H322M lung | -1 |
| Cc1nc2c(c(=O)[nH]1)OCN(Cc1ccccc1)C2 | NCI-H322M lung | -1 |

What was the test verdict on "Cc1cc(=O)[nH]c(N/N=C/c2ccccc2O)n1" ?
1

* * *

# Tested on: HOP-62 NSCLC
# Assay info: NCI-60 one-dose screen, 48 h
# Settings: 10 µM
Compounds without any hit were thinned out: in the full panel of roughly 83,000, 20% have a hit. Active and inactive are the calls of the source. How the source made its calls: active means growth percent below 10; inactive means the rest.
# output must be one of active, inactive

| Molecule | Label |
| --- | --- |
| O=C(N/N=C/c1ccccc1O)C(O)(c1ccccc1)c1ccccc1 | inactive |
| FC(F)(F)c1ccc(-c2cnc(Cl)nc2N2CCC3(CC2)OCCO3)cc1 | inactive |
| COc1cc(C(=O)N2CCN(c3ccccc3OC)CC2)c(N)cc1OCCCN1CCN(c2ccccc2OC)CC1 | inactive |
| CCCCOC(=O)Oc1ccc(C(=O)Oc2ccc(OCC)cc2)cc1 | inactive |
| CCOC(=O)C(CSC(c1ccccc1)(c1ccccc1)c1ccccc1)NC(=O)C(CSC(c1ccccc1)(c1ccccc1)c1ccccc1)NC(c1ccccc1)(c1ccccc1)c1ccccc1 (centres undefined) | inactive |

Query molecule follows.
Please share the test call associated with "COC(=O)c1c(-c2ccccc2)csc1NC(=O)c1c(-c2ccccc2)noc1C" .
inactive

* * *

# Test system: NCI-H226 lung
# Assay info: NCI-60 one-dose screen, 48 h (100 = growth as untreated, 0 = no growth, -100 = all killed)
# Settings: 10 µM
Compounds without any hit were thinned out: in the full panel of roughly 83,000, 20% have a hit.
Classification field: Condition met = growth at or over 90%; Condition not met = growth under 90%.

Form field: growth at least 90%? Entry: "COc1ccc(OC)c(/C=C/c2nc(SC)n(-c3ccc(Cl)cc3)n2)c1"
Condition not met

Hi, just wondering whether "COc1ccc(/C=C/C(=O)Nc2ccc(-c3nc4ccc(F)cc4s3)cc2)cc1" shows growth of 90% or higher.
Condition not met

Is it the case that "CC12O[C@H](C[C@@H](O)[C@H]1O)n1c3ccccc3c3c4c(c5c6ccccc6n2c5c31)C(=O)N(CCCN)C4=O" has growth reaching or exceeding 90%?
Condition not met

* * *

For each of the compounds below, state its growth.
# Test system: SNB-19 CNS
# Assay info: NCI-60 one-dose screen, 48 h (100 = growth as untreated, 0 = no growth, -100 = all killed)
# Settings: 10 µM
The panel holds about 83,000 compounds, 20% with a hit somewhere; the sample as a whole holds those more often. Calls of active or inactive are those of the source. How the source made its calls: active means growth percent below 10; inactive means the rest.

Field: example entries. Status: answers known.
| Compound | Result |
| --- | --- |
| COc1ccc2c(c1)N(CCO)C1=C(C(=O)OC1)C2c1cc(OC)c(OC)c(OC)c1 (configuration not stated) | 19.1% (inactive) |
| O=C1C(c2ccccc2)C2C=CC(C2)N1O (configuration not stated) | 106% (inactive) |

Field: growth. Fill in for each record below.
1. COc1ccc(-c2nc3ncccn3c2-c2nnc(-c3ccc(F)cc3)o2)cc1
2. O=C1/C(=C\c2ccc(Cl)cc2)CN(C(=S)Nc2ccccc2)C/C1=C\c1ccc(Cl)cc1
3. COc1ccc(Nc2nc3ccc(NC(=O)NC4CCCCC4)cc3[nH]c2=O)cc1
4. N#Cc1ncc(-c2cc(F)c(F)c(F)c2)c(NC2CCCCCC2)n1
5. CN(CCc1ccccn1)c1ccccc1
6. CCCCCC(=O)c1ccc(OCCCN2CCN(C(=O)OCC)CC2)cc1
7. O=C(Nc1cccc(-n2cc(-c3ccncc3)c(-c3ccc(O)c(Cl)c3)n2)c1)c1cccc(C(F)(F)F)c1
8. CS(=O)(=O)Nc1ccc(Nc2c3ccccc3nc3cc([N+](=O)[O-])ccc23)cc1

1. 96.9% (inactive)
2. -72.9% (active)
3. 100% (inactive)
4. 90.9% (inactive)
5. 102% (inactive)
6. 95.9% (inactive)
7. 69.7% (inactive)
8. 43.3% (inactive)

For the 5 compounds below, give their growth values.
1. Cc1ccc(C)c(C(O)(c2cc(C)ccc2C)C2(O)CCCCC2)c1
2. O=C(Nc1cccc(Br)c1)c1cc(=O)[nH]c2ccccc12
3. CCCCCCCCCCCC[n+]1ccc(C(N)=O)cc1
4. Nc1ccccc1NC(=O)CCCCC(=O)Nc1ccc2c(c1)/C(=C/c1ccc[nH]1)C(=O)N2
5. O=C(CCCCCCC(=O)Nc1cccnc1)NO

1: 98.8% (inactive); 2: 97.9% (inactive); 3: 18.6% (inactive); 4: 76.4% (inactive); 5: 68.1% (inactive)

Please report growth for every entry that follows.
1. CCN(CC)CCCC(C)Nc1nc(-c2ccc(OC)cc2)nc2cc(Cl)ccc12 (configuration not stated)
2. CC12O[C@H](C[C@@H](OC(=O)c3ccccc3)[C@H]1O)n1c3ccccc3c3c4c(c5c6ccccc6n2c5c31)C(=O)NC4=O
3. Cc1cc(=O)n2nnc3c4ccccc4ccc3n12
4. COc1cc(-c2nc(-c3nnc(-c4ccc(F)c(Cl)c4)o3)c3ccccn23)cc(OC)c1OC

1. 74.6% (inactive)
2. 101% (inactive)
3. 94.9% (inactive)
4. 4.53% (active)

I'm hoping you can list growth for every compound here, please.
1. CC[C@H](C)C(=O)O[C@H]1CCC=C2C=C[C@H](C)C(CCC3C[C@@H](O)CC(=O)O3)[C@H]21 (some centres not stated)
2. CC(=O)c1cc(Cl)ccc1O

56.2% (inactive)
113% (inactive)

So what's the measured growth for this one? CC1CC(=O)OC(C)C1 (configuration not stated)
116% (inactive)

* * *

# Tested on: HCT-116 colon
# Assay info: NCI-60 one-dose screen, 48 h (100 = growth as untreated, 0 = no growth, -100 = all killed)
# Settings: 10 µM
Compounds without any hit were thinned out: in the full panel of roughly 83,000, 20% have a hit.
Reported metric: growth (%)
One number for each entry, in %.

# count of solved cases: 3
| Molecule | growth / % |
| --- | --- |
| CCN(CC)Cc1cc(Nc2ccnc3cc(Cl)ccc23)ccc1OC | 69.1 |
| O=C(CSSCC(=O)c1ccc(Cl)cc1)c1ccc(Cl)cc1 | 35.4 |
| CN(C)c1ccc(/C=C/C=N/NC(=O)c2cc(O)c(O)c(O)c2)cc1 | 52.7 |

Give growth for each listed item.
1. C=C(NC(=O)C(=C)NC(=O)c1csc(C2=NC3c4csc(n4)C4NC(=O)c5csc(n5)C(C(C)(O)C(C)O)NC(=O)C5CSC(=N5)/C(=C/C)NC(=O)C(C(C)O)NC(=O)c5csc(n5)C3(CC2)NC(=O)C(C)NC(=O)C(=C)NC(=O)C(=C)NC(=O)C(C(C)C)NC2C=Cc3c(C(C)O)cc(nc3C2O)C(=O)OC4C)n1)C(N)=O (configuration not stated)
2. COc1ccc(/C=C2/CN(C(=O)c3ccc(C)cc3)C/C(=C\c3ccc(OC)cc3)C2=O)cc1
3. CN(C)CCN=c1nc2c(c(N)n1-c1ccccc1)c(=S)n(-c1ccccc1)c(=S)n2-c1ccccc1
4. COc1cc(-c2cc(/C=C/C(=O)c3ccc(F)c(F)c3)[nH]n2)cc(OC)c1OC
5. CCCCCCc1cc(N=Nc2ccc(S(=O)(=O)Nc3cc(C)nc(C)n3)cc2)c(O)cc1O
6. COc1cc(-c2nc(-c3nnc(-c4ccc(F)c(Cl)c4)o3)c3ccccn23)cc(OC)c1OC
7. CCCCOC(=O)Oc1ccc(C(=O)Oc2ccc(OCC)cc2)cc1

1. -49.5
2. -27
3. -22.1
4. 29.3
5. 86.3
6. -31.5
7. 98.2

Give measured growth for every item shown.
1. CCOC(=O)CNC(=O)CCCCSc1ncnc2nc[nH]c12
2. Cc1cccc(NC2=C(C#N)C(=O)NC3(CCCC3)S2)c1
3. Cc1cc(C)c2c(n1)sc1c(Nc3ccc(Cl)cc3)ncnc12

101
105
15.1

Kindly give each listed record's growth.
1. COc1ccc2c(c1)sc1nc(-c3ccccc3)c(-c3ccsc3)n12
2. COc1cc(C(=C2O[C@@H]([C@H]3COC(C)(C)O3)[C@H]3OC(C)(C)O[C@@H]23)c2cc(OC)c(OC)c(OC)c2)cc(OC)c1OC
3. O=C(NC(Cc1ccc(O)cc1)C(=O)N=Nc1c(O)[nH]c2ccccc12)c1ccccc1 (configuration not stated)

[30.8, 96.4, 99.3]

Could I get growth for every one of these entries?
1. O=C1c2ccc3c4c(ccc(c24)C(=O)N1CCNCc1ccccc1)C(=O)N(CCNCc1ccccc1)C3=O
2. CC/C(=C(/c1ccc(OCCN(C)C)cc1)c1ccc(OC(=O)CCC(=O)c2c(C)[nH]c(/C=C3\N=C(c4ccc[nH]4)C=C3OC)c2C)cc1)c1ccccc1
3. CCCCCCN1CCN(Cc2ccc(N(CC)CC)cc2)C(=O)C1=O
4. N#Cc1ncc(-c2cc(F)c(F)c(F)c2)c(NC2CCCCCC2)n1
5. O=C(Cc1csc2nc(-c3ccc(Cl)cc3)cn12)N/N=C/c1ccccc1O
6. CCCCOc1ccc(NC(=O)Nc2nnc(C)s2)cc1

1. -18
2. 5.92
3. 34.2
4. 84.4
5. 36.6
6. 94.9

Hi! Can you tell me growth for each of these molecules?
1. CCOC(=O)C(CSC(c1ccccc1)(c1ccccc1)c1ccccc1)NC(=O)C(CSC(c1ccccc1)(c1ccccc1)c1ccccc1)NC(c1ccccc1)(c1ccccc1)c1ccccc1 (configuration not stated)
2. CC/C(C)=C(\C)C(=O)O

1: 108; 2: 109

Below is a list of molecules. For each, state its recorded growth.
1. COc1ccc(-c2nn(-c3cccc(NC(=O)c4ccc(N5CCOCC5)c(C(F)(F)F)c4)c3)cc2-c2ccncc2)cc1Cl
2. COc1cc(C(=O)/C=C/c2cc(-c3cc(OC)c(OC)c(OC)c3)n[nH]2)cc(OC)c1OC
3. CCN(CC)CCOc1nc2ccccc2c2c1-c1ccc(OC)cc1C2=O

1. 55.5
2. -93.6
3. -93

Answer for every listed entry: what is its growth? The entries follow.
1. COc1cc(-c2nn3c(/C=C4/C(=O)Nc5ccccc54)c(-c4ccc(C)cc4)nc3s2)cc(OC)c1OC
2. Cc1cc2c(C)c3cc(C)c(N)cc3nc2cc1N
3. COc1ccc2c(c1)N(CCO)C1=C(C(=O)OC1)C2c1ccccc1 (configuration not stated)

1: 24; 2: -9.81; 3: 25.9

For the 5 molecules below, give their growth values.
1. CCCCCCCCCCCCC1C/C=C\CCCC(=O)O1 (configuration not stated)
2. COc1cc(CNc2ccccc2C(=O)N2CCN(C(=O)c3cc(-c4cc(OC)c(OC)c(OC)c4)n4nc(-c5ccccc5)cc4n3)CC2)cc(OC)c1OC
3. CCCCCCCCCCCC[n+]1ccc(C(N)=O)cc1
4. Nc1c(C(=O)Nc2ccccc2Cl)sc2nc3c(cc12)C(=O)CCC3
5. COc1ccc(Nc2ccnc(NCCNc3ccnc4cc(Cl)ccc34)n2)cc1

[105, 21.6, 25.6, 76.5, 3.11]

List reported growth for each of these molecules:
1. O=C(Nc1ccc(CN2CCc3nc4cc(O)c(O)cc4cc32)cc1)c1ccc(Cl)c(Cl)c1
2. O=C1/C(=C\c2ccc(F)cc2)CN(C(=O)c2ccccc2)C/C1=C\c1ccc(F)cc1

1: 100; 2: -55.3

Values compiled from PubChem BioAssay (NCI).
